Items are presented alongside their recorded TGI.
test system: OVCAR-3 ovarian; test: NCI tumour cell line growth inhibition, 48 h
Supply the numeric figure in µM, leaving out any unit text.

In the examples that follow, each entry is paired with its recorded TGI.
- CCOc1cc(C2CC(c3ccc(NS(=O)(=O)c4cc([N+](=O)[O-])ccc4C)cc3)=NN2)ccc1O (stereo not given): 37.3
- COc1ccc(Cn2c(Cl)c(/C=C3/C(=O)Nc4ccccc43)c3cc(OC)c(C)cc32)cc1: 5.37
- CCN(CCNc1ccc(C)c2sc3ccccc3c(=O)c12)CC(C)(C)O: 27.4

Field: next compound
The compound C=C(C)C1CC=C(C)C2(C1)OCC(C)(C)C(C)O2 (stereo not given) showed TGI equal to 29.9
